# targetDesc: T1, Bdf1 bromodomain 2 (GST-tagged, WT) (Saccharomyces cerevisiae (strain ATCC …, UniProt P35817))
# T1 chain: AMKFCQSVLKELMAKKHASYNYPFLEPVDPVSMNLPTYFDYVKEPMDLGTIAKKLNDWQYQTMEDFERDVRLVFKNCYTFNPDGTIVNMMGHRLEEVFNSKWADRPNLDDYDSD
# assayExplanation: histone peptide array probed with recombinant GST-bromodomain, signal normalised to myc peptide control
Non-standard residues stand in square brackets, D forms with d. Primed or numbered codes have the meaning given here. No end group written: not given here. Me2s″ = symmetric dimethylarginine (Rme2s); Arg(Me2a) = CN(C)C(=N)NCCC[C@H](N)C(=O)O; Arg(Me2s) = CN=C(NC)NCCC[C@H](N)C(=O)O; pT = C[C@@H](OP(=O)(O)O)[C@H](N)C(=O)O; pS = N[C@@H](COP(=O)(O)O)C(=O)O
assayMetric: binding score

ARTKQTA[Arg(Me2a)]KS[pT]GGKAPRKQ; 0
AR(Me2s″)TK(Me)QTARK(Me)STGGKAPRKQ; 0.0105
PRKQLATKAARK[pS]APATGG [H3 16-35]; 0
ARTKQTARKSTGGKAPRKQ (A Rme2a T Kme2 Q T A Rme2a Kac S T G G K A P R K Q); 0.00423
PDPAK(Ac)SAPAPKKGSKKAVT [H2B 1-19]; 0

a: SGRGK(Ac)QGGKARAKAKSRSS [H2a 1-19]
b: A[Arg(Me2s)][pT]K(Ac)QTARKSTGGKAPRKQ
Lab note: check whether a or b shows the higher recorded binding score. Please identify the chosen entry by its label. a
